The values you see were collected from ChEMBL document CHEMBL3621155.

Record form. Attribute: pIC50. Fill in for each entry.
- SYSTEM: Lysophosphatidic acid receptor 1 (Homo sapiens, UniProt Q92633)
- Sequence (Q92633 whole entry): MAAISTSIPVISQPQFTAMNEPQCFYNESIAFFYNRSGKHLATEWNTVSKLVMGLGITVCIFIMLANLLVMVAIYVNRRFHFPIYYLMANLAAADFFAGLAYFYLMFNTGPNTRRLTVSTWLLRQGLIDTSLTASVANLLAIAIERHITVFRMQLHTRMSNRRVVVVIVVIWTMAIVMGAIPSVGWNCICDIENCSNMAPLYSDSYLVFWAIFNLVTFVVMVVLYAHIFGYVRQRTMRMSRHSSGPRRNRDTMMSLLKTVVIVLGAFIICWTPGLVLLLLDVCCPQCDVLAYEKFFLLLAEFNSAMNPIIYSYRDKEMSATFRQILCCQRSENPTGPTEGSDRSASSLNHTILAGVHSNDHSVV
- RUN_DESCRIPTION: Antagonist activity at human LPA1 receptor expressed in CHO cells assessed as inhibition of LPA-induced calcium mobilization preincubated for 30 mins followed by LPA induction by FLIPR Calcium 4 dye-based fluorometric analysis
- Type: functional, cell-based
Answers are plain numbers, as −log10 of the molar value.

Which pIC50 value belongs to Cc1noc(-c2ccc(-c3ccc(CC(=O)O)cc3)cc2)c1NC(=O)O[C@H](C)c1ccccc1 ?
7.60

For the next question, use this molecule.
Name the reported pIC50 value associated with the molecule Cc1noc(-c2ccc(-c3ccc(CC(=O)O)cc3)cc2)c1NC(=O)O[C@H](C)c1ccccc1Cl
7.77
